# measurement target: T1, HER2 expressed on the surface of cells (human, UniProt P04626 23-1255)
# T1 construct: whole, on cells; also called ErbB2
# method description: flow cytometry on SKBR3 cells, n=1
readout type: Bmax (MFI)
Report the value in MFI with no unit label.

Below are worked cases with known answers.
binder	readout number
Variant 14019 (antibody, name in Kabat numbering, V domains shown, also called v14019) VH: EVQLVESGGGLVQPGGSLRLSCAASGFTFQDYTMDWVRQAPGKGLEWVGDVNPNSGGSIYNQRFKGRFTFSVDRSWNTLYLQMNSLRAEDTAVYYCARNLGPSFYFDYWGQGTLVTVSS VL: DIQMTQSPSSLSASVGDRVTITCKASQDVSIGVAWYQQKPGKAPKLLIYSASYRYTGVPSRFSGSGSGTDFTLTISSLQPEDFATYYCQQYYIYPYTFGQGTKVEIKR	29000
Variant 12471 (antibody, human IgG1, kappa, name in Kabat numbering, V domains shown, Kabat numbering; also called v12471; FSA version of v9996) VH: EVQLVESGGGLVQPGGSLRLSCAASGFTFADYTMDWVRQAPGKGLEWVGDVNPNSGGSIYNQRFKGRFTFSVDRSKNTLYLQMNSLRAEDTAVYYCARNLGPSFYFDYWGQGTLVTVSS VL: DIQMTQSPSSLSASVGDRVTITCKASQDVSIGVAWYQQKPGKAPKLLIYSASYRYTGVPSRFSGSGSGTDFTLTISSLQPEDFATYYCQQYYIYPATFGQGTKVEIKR	27000
Variant 14022 (antibody, name in Kabat numbering, V domains shown, also called v14022) VH: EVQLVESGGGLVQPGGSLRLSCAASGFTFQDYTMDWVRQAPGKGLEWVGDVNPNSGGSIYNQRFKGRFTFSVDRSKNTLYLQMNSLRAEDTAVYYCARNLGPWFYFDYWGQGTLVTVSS VL: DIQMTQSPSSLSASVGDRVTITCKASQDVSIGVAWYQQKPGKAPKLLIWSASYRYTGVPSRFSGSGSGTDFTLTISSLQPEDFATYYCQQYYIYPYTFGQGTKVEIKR	31000

# return recorded Bmax for entry Variant 14020 (antibody, name in Kabat numbering, V domains shown, also called v14020) VH: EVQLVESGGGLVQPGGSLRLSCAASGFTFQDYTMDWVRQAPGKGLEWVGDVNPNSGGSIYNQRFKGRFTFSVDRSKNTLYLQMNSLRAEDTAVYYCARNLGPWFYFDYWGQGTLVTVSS VL: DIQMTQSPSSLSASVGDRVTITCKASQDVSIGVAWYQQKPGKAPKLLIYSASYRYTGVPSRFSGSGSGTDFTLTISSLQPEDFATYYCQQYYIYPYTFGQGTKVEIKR
33000
